tested on: isolated CE-1 enzyme from porcine liver; experiment: CE-1 activity on short chain esters, 1H NMR; type: biochemical; conditions: 26 μmol substrate, 37° C., conversion over 60 min
Can you tell me k for the items I'm about to list?
Report as a plain number; the unit µmol/min is understood.

Challenge: Return k (reported value) for this molecule: CCOC(=O)[C@@H]1CCC(=O)N1 [Ethyl pyroglutamate]
Response given: 0.02

Challenge: For CCCC(=O)OC [Methylbutyrate] , write its k.
Response given: 0.22

Challenge: Tell us which k value is on record for CC(=O)OCCOC(C)=O [Ethyleneglycol diacetate]
Response given: 0.07

Challenge: Give reported k value for CC(=O)OCc1ccccc1 [Benzyl acetate]
Response given: 0.07

Challenge: Please list k recorded for the molecule CCOC(=O)CC(C)=O [Ethyl acetoacetate]
Response given: 0.12

Challenge: Give k for CCCCOC(C)=O [Butyl acetate]
Response given: 0.04

Challenge: Supply reported k belonging to this molecule: CCOC(=O)C(C)O (stereo not drawn) [Ethyl lactate]
Response given: 0.11

Challenge: Give the reported k for this molecule. CCOC(=O)CC(C)O (stereo not drawn) [Ethyl 3-Hydroxybutyrate]
Response given: 0.08

Challenge: Return the recorded k value; entry: CCOC(=O)CCC(=O)OCC [Diethyl succinate]
Response given: 0.48

###

tested on: isolated CE-1 enzyme from porcine liver; experiment: CE-1 activity on short chain esters, 1H NMR; format: biochemical; conditions: 26 μmol substrate, 37° C., conversion over 60 min
Where a name gives a salt, the structure may show the parent alone.
Decide by k: equal to or exceeding 0.02 µmol/min means met, less means not met.

Challenge: k >= 0.02 µmol/min for CCOC(C)=O [Ethylacetate] ?
Response given: met

Challenge: Determine whether this molecule has k no lower than 0.02 µmol/min: CC(=O)OC(C)(C)C [Tert-butyl acetate]
Response given: not met

Challenge: Entry CCOC(=O)CC(O)(CC(=O)OCC)C(=O)OCC [Triethyl citrate] : is its k no less than 0.02 µmol/min?
Response given: not met

Challenge: # bool: k of CCCC(=O)OCC [Ethylbutyrate] >= 0.02 µmol/min
Response given: met

Challenge: Is k at least 0.02 µmol/min? Consider COC(=O)CCC(=O)OC [Dimethyl succinate]
Response given: met

###

Target: CE-2 in lysed human breast cancer cells (MCF-7) (Homo sapiens, UniProt O00748)
Construct: endogenous in cells; host or cells: MCF-7 (sonicated lysate)
Sequence (O00748 27-559): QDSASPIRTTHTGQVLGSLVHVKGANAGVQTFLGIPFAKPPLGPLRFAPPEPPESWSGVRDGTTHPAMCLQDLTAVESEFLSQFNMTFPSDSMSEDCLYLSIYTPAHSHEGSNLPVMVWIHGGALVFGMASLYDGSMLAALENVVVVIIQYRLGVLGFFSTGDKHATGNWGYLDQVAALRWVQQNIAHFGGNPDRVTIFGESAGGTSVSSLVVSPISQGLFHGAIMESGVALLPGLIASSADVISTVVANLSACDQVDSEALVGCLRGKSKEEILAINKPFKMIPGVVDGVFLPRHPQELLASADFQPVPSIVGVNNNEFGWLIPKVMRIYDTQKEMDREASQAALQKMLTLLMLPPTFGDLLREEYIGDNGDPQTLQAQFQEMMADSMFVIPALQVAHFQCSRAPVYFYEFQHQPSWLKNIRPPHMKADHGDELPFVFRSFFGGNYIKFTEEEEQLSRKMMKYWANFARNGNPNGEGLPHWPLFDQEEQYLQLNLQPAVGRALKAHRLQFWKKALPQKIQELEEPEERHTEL
Test: CE-2 activity on acetate esters in lysed MCF-7 cells, 1H NMR
Format: biochemical
Details: 5 million lysed MCF-7 cells, 37° C., 1 hour
Exercise: for every item that follows, state its recorded k.
All answers are understood in µmol/min, so give the number only.

Challenge: Indicate the recorded k value for this molecule: CCCCOC(C)=O [Butyl acetate]
Response given: 0.24

Challenge: Fill in k for record CC(=O)OCc1ccccc1 [Benzyl acetate]
Response given: 1.05

Challenge: Determine its reported k: CCOC(C)=O [Ethylacetate]
Response given: 0

Challenge: Give me measured k, please, for this molecule: CC(=O)OCC(COC(C)=O)OC(C)=O
Response given: 0.27

Challenge: Give reported k value for CC(=O)OCCOC(C)=O [Ethyleneglycol diacetate]
Response given: 0.18
